OBSERVED_PROPERTY: melting point

Some entries whose results are on file:
# COMPOUND, melting point
records = [
    ("CC1(C)N=C(c2cnc3ccccc3c2)c2cc(Br)ccc2C1(F)F", "123 to 125 °C"),
    ("CC1(C)Cc2c(Cl)cccc2C(c2cnc3ccccc3c2)N1 (stereo not shown)", "129 to 131 °C"),
    ("CC1(C)N=C(c2cnc3ccccc3c2)c2cccc(F)c2C1O (stereo not shown)", "225 to 226 °C"),
    ("CC1c2c(F)cccc2C(c2cnc3ccccc3c2)NC1(C)C (stereo not shown)", "133 to 134 °C"),
]

Would you mind telling me what melting point value was observed for CC1(C)Cc2ccccc2C(c2cnc3ccccc3c2)N1 (stereo not shown) ?
117 to 122 °C

melting point lookup needed for CCOC1(C)c2c(F)cccc2C(c2cnc3ccccc3c2)=NC1(C)C (stereo not shown) , thanks.
118 to 119 °C

----------
Listed below: melting point values for each entry.

Illustrative cases are given below, each with its answer.
# COMPOUND, melting point
measured = [
    ("CC1(C)Cc2c(F)cccc2C(C)(c2cnc3ccccc3c2)N1 (stereo not drawn)", "148 to 150 °C"),
    ("CC1(C)NC(c2cnc3ccccc3c2)c2cccc(F)c2C1(C)C (stereo not drawn)", "179 to 181 °C"),
    ("CC1(C)Cc2c(cccc2-c2cnco2)C(c2cnc3ccccc3c2)=N1", "175 to 179 °C"),
    ("CC1(C)N=C(c2cnc3ccccc3c2)c2ccccc2C1=O", "137 °C"),
    ("CN1C(c2cnc3ccccc3c2)c2ccccc2CC1(C)C (stereo not drawn)", "116 to 118 °C"),
]

# lookup: melting point of `CC1(C)Cc2c(C(N)=O)cccc2C(c2cnc3ccccc3c2)=N1`
236 to 240 °C

----------
# Lookup of reported melting point keyed by entry

# MOLECULE, melting point
rows = [
    ("CC1(C)Cc2c(F)cccc2C(c2cnc3ccccc3c2)N1 (stereo not shown) [Example 110]", "142 to 144 °C"),
]

Which measured melting point value corresponds to CC1(C)Cc2c(Cl)cccc2C(C)(c2cnc3ccccc3c2)N1 (stereo not shown) ?
142 to 144 °C

Could you tell me which melting point is on file for CC1(C)NC(c2cnc3ccccc3c2)c2cccc(F)c2C1=O (stereo not shown) ?
228 to 229 °C

Can you look up the measured melting point of CCC1(OC)c2c(F)cccc2C(c2cnc3ccccc3c2)=NC1(C)C (stereo not shown) [Example 185] for me?
145 to 147 °C
